- MEASUREMENT_TARGET: PREP (Homo sapiens (Human), UniProt P48147)
- Sequence (P48147 whole entry): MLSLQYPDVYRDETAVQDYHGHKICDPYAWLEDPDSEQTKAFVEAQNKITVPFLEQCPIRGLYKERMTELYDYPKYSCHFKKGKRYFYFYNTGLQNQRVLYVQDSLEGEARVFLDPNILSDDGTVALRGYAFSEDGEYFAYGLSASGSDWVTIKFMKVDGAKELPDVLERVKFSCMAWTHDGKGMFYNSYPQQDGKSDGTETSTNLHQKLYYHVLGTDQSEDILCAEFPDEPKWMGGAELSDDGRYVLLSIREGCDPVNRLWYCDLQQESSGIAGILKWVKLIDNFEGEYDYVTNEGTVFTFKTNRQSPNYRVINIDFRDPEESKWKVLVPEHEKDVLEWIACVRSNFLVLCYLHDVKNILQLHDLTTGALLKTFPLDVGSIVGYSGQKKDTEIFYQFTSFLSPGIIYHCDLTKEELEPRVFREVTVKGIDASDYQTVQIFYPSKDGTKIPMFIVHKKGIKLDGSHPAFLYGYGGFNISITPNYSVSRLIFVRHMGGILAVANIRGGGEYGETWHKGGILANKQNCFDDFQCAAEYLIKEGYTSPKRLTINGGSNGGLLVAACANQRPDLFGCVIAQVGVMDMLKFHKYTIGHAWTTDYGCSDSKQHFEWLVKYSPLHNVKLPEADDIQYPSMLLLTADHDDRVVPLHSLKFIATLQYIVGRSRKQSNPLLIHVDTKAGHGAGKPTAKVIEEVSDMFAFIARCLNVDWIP
- ASSAY_REMARKS: PREP inhibition assay (recombinant enzyme, Z-Gly-Pro-AMC substrate)
- Format: biochemical
- RUN_CONDITIONS: Table 3
IC50: recorded values
READOUT_LABEL: IC50 (µM)

# MOLECULE, READOUT_LABEL, MEASUREMENT_UNITS, OPERATOR, RECORDED_NUMBER
rows = [
    ("N#C[C@@H]1CCCN1C(=O)CNC(=O)c1ccnc2c(F)cccc12", "IC50", "µM", "=", 0.0845),
    ("N#C[C@@H]1CCCN1C(=O)CNC(=O)c1ccnc2ccc(OCCCNC(=O)[C@@H](CC(=O)O)NC(=O)[C@@H](CC(=O)O)NC(=O)c3ccc(F)nc3)cc12", "IC50", "µM", "=", 86.6),
    ("N#CC1CCCN1C(=O)CNC(=O)c1ccnc2ccc(OCCCNC(=O)CCc3cn(CCCC[C@H](NC(=O)CN4CCN(CC(=O)O)CCN(CC(=O)O)CC4)C(=O)NCCCOc4ccc5nccc(C(=O)NCC(=O)N6CCC[C@H]6C#N)c5c4)nn3)cc12 (stereo partly shown)", "IC50", "µM", "=", 0.63),
    ("N#C[C@@H]1CC(F)(F)CN1C(=O)CNC(=O)c1ccnc2ccc(F)cc12", "IC50", "µM", "=", 0.047),
    ("N#C[C@@H]1CCCN1C(=O)CNC(=O)c1ccnc2ccc(OCCOCCNC(=O)[C@H](CCCCNC(=O)c3ccc(F)nc3)NC(=O)CN3CCN(CC(=O)O)CCN(CC(=O)O)CCN(CC(=O)O)CC3)cc12", "IC50", "µM", "=", 1.09),
    ("N#C[C@@H]1C[C@H](F)CN1C(=O)CNC(=O)c1ccnc2ccc(F)cc12", "IC50", "µM", "=", 0.0115),
    ("N#C[C@@H]1CCCN1C(=O)CNC(=O)c1ccnc2cccc(F)c12", "IC50", "µM", "=", 0.0958),
    ("N#C[C@@H]1CCCN1C(=O)CNC(=O)c1ccnc2ccc(OCCCN(Cc3ccc(I)cc3)C(=O)CN3CCN(CC(=O)O)CCN(CC(=O)O)CCN(CC(=O)O)CC3)cc12", "IC50", "µM", ">", 2000),
    ("N#C[C@@H]1CCCN1C(=O)CNC(=O)c1c(F)cnc2ccccc12", "IC50", "µM", "=", 0.688),
    ("N#C[C@@H]1CCCN1C(=O)CNC(=O)c1ccnc2ccc(OCCCN(Cc3ccc(F)nc3)C(=O)CN3CCN(CC(=O)O)CCN(CC(=O)O)CCN(CC(=O)O)CC3)cc12", "IC50", "µM", "=", 21.9),
    ("N#C[C@@H]1CCCN1C(=O)CNC(=O)c1ccnc2ccc(OCCCNC(=O)[C@@H](CC(=O)O)NC(=O)[C@@H](CC(=O)O)NC(=O)c3cccc(F)n3)cc12", "IC50", "µM", "=", 6.91),
    ("N#C[C@@H]1CCCN1C(=O)CNC(=O)c1ccnc2cc(F)ccc12", "IC50", "µM", "=", 0.522),
    ("N#C[C@@H]1CCCN1C(=O)CNC(=O)c1ccnc2ccc(OCCCNC(=O)CCOCCOCCOCCOCCNC(=O)[C@H](CCCCNC(=O)c3ccc(F)nc3)NC(=O)CN3CCN(CC(=O)O)CCN(CC(=O)O)CCN(CC(=O)O)CC3)cc12", "IC50", "µM", "=", 0.24),
]
